Biological target: Progesterone receptor (Homo sapiens, UniProt P06401); also: assay procedure not described here
Sequence (P06401 whole entry): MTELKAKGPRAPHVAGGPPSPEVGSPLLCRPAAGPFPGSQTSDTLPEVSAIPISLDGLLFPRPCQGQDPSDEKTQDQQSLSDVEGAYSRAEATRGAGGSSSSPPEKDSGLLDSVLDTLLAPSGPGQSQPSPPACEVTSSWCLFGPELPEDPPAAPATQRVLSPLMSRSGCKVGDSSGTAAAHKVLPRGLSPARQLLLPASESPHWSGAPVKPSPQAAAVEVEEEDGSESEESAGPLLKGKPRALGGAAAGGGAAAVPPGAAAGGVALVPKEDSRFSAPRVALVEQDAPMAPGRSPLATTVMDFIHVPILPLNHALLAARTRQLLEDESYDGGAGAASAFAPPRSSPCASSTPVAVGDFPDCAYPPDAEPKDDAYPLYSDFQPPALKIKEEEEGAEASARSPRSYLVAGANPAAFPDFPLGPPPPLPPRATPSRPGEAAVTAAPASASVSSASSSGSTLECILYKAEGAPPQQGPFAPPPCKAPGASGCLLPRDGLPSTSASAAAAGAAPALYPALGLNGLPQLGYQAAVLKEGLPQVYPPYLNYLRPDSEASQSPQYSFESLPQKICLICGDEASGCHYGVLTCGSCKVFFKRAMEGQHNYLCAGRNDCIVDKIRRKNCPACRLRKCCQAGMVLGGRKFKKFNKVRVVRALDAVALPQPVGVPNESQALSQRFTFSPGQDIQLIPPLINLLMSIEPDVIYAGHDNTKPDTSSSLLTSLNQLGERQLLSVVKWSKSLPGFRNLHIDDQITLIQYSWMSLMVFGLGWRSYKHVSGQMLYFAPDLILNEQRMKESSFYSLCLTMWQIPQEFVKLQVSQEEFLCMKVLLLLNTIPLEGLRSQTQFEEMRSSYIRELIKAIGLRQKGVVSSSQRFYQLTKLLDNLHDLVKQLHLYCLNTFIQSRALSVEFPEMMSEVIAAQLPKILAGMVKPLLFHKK
Format: functional
measured_quantity: AC50

AC50 on Progesterone receptor (Homo sapiens, UniProt P06401) for C#C[C@]1(O)CC[C@H]2[C@@H]3CCC4=CC(=O)CCC4=C3C=C[C@@]21CC [GESTRINONE] is 0.1 µM

AC50 on Progesterone receptor (Homo sapiens, UniProt P06401) for CCn1cc(C(=O)O)c(=O)c2cc(F)c(N3CCN(C)CC3)cc21 [PEFLOXACIN] is > 30 µM

AC50 on Progesterone receptor (Homo sapiens, UniProt P06401) for COc1ccc(Cc2nccc3cc(OC)c(OC)cc23)cc1OC [PAPAVERINE] is > 30 µM
